# TARGET_OR_SYSTEM: OR7D4 (Homo sapiens, UniProt Q8NG98, D296E/E302K/G299D)
# Construct: Improved functional expression of modified OR-genes containing the truncated, optimized C-terminus; expressed in transfected cells
# Sequence (Q8NG98 with tags, fused parts or gaps D296E/G299D/E302K): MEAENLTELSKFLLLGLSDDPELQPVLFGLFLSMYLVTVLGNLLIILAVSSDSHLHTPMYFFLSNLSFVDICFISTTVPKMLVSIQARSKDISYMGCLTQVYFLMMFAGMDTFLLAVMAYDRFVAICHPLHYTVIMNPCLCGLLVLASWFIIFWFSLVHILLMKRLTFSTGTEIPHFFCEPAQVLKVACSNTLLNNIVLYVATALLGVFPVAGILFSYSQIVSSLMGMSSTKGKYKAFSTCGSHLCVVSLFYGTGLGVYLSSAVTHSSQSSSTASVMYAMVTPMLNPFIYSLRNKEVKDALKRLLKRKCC
# METHOD_NOTES: CRE-luciferase assay, HEK cells expressing OR7D4 (wild-type / modified C-terminus)
# Assay type: cell-based
# ASSAY_SETUP: OR7D4 variant, Androstenone
EXPERIMENTAL_READOUT: EC2 Fold-improvement vs. wild-type

                                  substance  reading
0  SEQ ID NO: 300 (RNRDIRKAVKKLFGKKCC; source 1..18: note = C-terminal domain sequence)    87.76

For each of the items listed, what is its EC2 Fold-improvement vs. wild-type?
1. SEQ ID NO: 289 (RNKEIRKALRRLFGKKCC; source 1..18: note = C-terminal domain sequence)
2. SEQ ID NO: 292 (RNKDVRKAVKRLLKKRCC; source 1..18: note = C-terminal domain sequence)
3. SEQ ID NO: 277 (RNRDVRKAVRKLFKRRCC; source 1..18: note = C-terminal domain sequence)
4. SEQ ID NO: 299 (RNRELKKAIRKLLKRKCC; source 1..18: note = C-terminal domain sequence)

[119.65, 94.88, 325.72, 18.62]

Give EC2 Fold-improvement vs. wild-type for all substances that follow.
1. SEQ ID NO: 257 (RNKEMKKAIHKLFGKKCC; source 1..18: note = C-terminal domain sequence)
2. SEQ ID NO: 306 (RNKDVRKAVRRLFGRRCC; source 1..18: note = C-terminal domain sequence)
3. SEQ ID NO: 305 (RNKDLKKAVKKLFGRKCC; source 1..18: note = C-terminal domain sequence)
4. SEQ ID NO: 261 (RNRDVRKALRRILRRRCC; source 1..18: note = C-terminal domain sequence)
5. SEQ ID NO: 275 (RNRDVRKAIRKLLKRKCC; source 1..18: note = C-terminal domain sequence)
6. SEQ ID NO: 304 (RNRDVRKALKRLLGRRCC; source 1..18: note = C-terminal domain sequence)
7. SEQ ID NO: 276 (RNRDLRKAVRRIFKKRCC; source 1..18: note = C-terminal domain sequence)

[172.96, 103.17, 13.15, 427.69, 323.20, 292.59, 50.55]

EC2 Fold-improvement vs. wild-type lookup needed for SEQ ID NO: 279 (RNKELKKALRKLIGKKCC; source 1..18: note = C-terminal domain sequence) , thanks.
17.53
